Target: human CCR8 (human, UniProt P51685 1-355)
Sequence (P51685 whole entry): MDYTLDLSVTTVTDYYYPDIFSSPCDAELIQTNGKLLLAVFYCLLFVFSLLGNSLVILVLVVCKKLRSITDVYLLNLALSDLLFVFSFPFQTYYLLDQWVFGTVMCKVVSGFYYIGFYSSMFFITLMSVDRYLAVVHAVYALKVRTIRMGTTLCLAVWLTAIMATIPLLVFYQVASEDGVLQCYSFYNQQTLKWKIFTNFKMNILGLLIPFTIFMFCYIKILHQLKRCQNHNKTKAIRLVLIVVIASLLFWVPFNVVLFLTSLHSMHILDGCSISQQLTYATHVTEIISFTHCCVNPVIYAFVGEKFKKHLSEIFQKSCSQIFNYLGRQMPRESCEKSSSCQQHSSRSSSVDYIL
Experiment: cell-based or functional assay
Just a reminder that ties go to No: only IC50 (nM), Ca2+ influx by 200 nM hCCL1 strictly below 0.2 nM counts as Yes.

Field: example entries. Status: answers known.
INSERT INTO results (binder, class_label) VALUES
  ('h10A11 (IGKV4-1/IGHV3-15 T94R) (antibody, V domains shown, humanized; detected with anti-human IgG; also called humanized 10A11 antibody (light chain variable region: IGKV4-1/heavy chain variable region: IGHV3-15 T94R)) VH: EVQLVESGGALVKPGGSLRLSCAASGFTFSTYALYWVRQAPGKGLEWVGRIRSKSNNYATYYADSVKDRFTISRDDSKNTLYLQMNSLKTEDTAVYYCTRARFYYSDYGYAMDYWGQGTLVTVSS VL: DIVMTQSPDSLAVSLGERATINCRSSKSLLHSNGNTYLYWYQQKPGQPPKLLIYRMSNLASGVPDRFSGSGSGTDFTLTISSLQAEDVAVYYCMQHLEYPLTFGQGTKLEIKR', 'Yes'),
  ('h10A11 (IGKV4-1/IGHV3-73) (antibody, V domains shown) VH: EVQLVESGGGLVQPGGSLKLSCAASGFAFNTYALYWVRQASGKGLEWVGRIRSKSNNYATYYADSVKDRFTISRDDSKNTAYLQMNSLKTEDTAVYYCTRARFYYSDYGYAMDYWGQGTLVTVSS VL: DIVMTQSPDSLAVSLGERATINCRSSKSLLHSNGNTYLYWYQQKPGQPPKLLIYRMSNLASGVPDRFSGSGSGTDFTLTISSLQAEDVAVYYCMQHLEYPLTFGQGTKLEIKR', 'Yes'),
  ('10A11 (antibody, V domains shown, mouse hybridoma antibody; also called m10A11; clone No. 10A11) VH: EVQLVESGGRLVQPKGSLKLSCAASGFAFNTYALYWIRQAPGKGLEWVARIRSKSNNYATYYADSVKDRFTISRDDSQSMLYLQMNNLKTEDTAMYYCVRARFYYSDYGYAMDYWGQGTSVTVSS VL: DIVMTQAAPSVPVTPGESVSISCRSSKSLLHSNGNTYLYWFLQRPGQSPQLLIYRMSNLASGVPDRFSGSGSGTAFTLRISRVEAEDVGVYYCMQHLEYPLTFGAGTKLELKR', 'No'),
  ('h10A11 (IGKV3-20/IGHV3-15 T94R) (antibody, V domains shown) VH: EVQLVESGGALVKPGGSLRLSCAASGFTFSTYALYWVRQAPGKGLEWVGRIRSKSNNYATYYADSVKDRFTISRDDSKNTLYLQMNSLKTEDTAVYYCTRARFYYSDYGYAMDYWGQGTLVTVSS VL: EIVLTQSPGTLSLSPGERATLSCRSSKSLLHSNGNTYLYWYQQKPGQAPRLLIYRMSNLASGIPDRFSGSGSGTDFTLTISRLEPEDFAVYYCMQHLEYPLTFGQGTKVEIKR', 'Yes');

Query: Dear colleague, could you confirm whether IC50 (nM), Ca2+ influx by 200 nM hCCL1 of h10A11 (IGKV2-40/IGHV3-15 T94R) (antibody, V domains shown) VH: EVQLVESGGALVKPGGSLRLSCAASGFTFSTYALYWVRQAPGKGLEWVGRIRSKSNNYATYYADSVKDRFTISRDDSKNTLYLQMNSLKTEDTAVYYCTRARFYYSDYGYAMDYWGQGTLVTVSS VL: DIVMTQTPLSLPVTPGEPASISCRSSKSLLHSNGNTYLYWYLQKPGQSPQLLIYRMSNLASGVPDRFSGSGSGTDFTLKISRVEAEDVGVYYCMQHLEYPLTFGQGTKLEIKR falls below 0.2 nM? Thanks.
Result: No
